STUDY_SYSTEM: T1, Purified PCSK9 carrying a C-terminal FLAG tag (UniProt Q8NBP7 31-692)
T1 construct: also called PCSK9-FLAG; PCSK9-Flag; not shown: C-terminal FLAG tag
T1 sequence (Q8NBP7 31-692 limits assumed): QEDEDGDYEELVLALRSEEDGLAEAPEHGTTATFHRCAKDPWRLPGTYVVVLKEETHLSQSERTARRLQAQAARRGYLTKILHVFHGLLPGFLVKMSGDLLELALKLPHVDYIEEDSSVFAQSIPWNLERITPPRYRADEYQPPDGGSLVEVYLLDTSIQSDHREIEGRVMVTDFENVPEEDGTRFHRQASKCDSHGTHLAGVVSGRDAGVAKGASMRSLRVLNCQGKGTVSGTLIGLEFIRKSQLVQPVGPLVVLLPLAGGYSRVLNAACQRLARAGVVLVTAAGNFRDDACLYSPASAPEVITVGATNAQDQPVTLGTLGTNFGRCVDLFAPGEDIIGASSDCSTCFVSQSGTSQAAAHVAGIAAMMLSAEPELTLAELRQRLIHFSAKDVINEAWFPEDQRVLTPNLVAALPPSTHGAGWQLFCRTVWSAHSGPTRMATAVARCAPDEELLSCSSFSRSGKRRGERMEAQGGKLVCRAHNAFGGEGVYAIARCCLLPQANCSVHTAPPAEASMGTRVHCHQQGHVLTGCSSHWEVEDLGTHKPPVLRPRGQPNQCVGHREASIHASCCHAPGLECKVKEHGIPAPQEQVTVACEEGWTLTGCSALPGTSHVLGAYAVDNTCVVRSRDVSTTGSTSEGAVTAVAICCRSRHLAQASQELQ
TEST: AlphaScreen, inhibition of PCSK9-Flag/His-tagged LDL receptor interaction, relative to no antibody
PROPERTY_NAME: % inhibition at 450 nM of antibody (%)
API: value field is a number in %; no unit string.

BINDER	UNIT_ANNOTATION	% inhibition at 450 nM of antibody
29C10 anti-PCSK9 antibody (IgG2a) (antibody, V domains shown) VH: EVLLQQSVAELVRPGASVRLSCTASGFNIKDTYIHWVRQRPEQGLEWFGWIDPANGYTKYAPNFQGKATLTTDTSSNTAYLHLSSLTSEDSAIYYCARGYYRYYSLDYWGQGTSVTVSS VL: DIQMTQTTSSLSASLGDRVTISCRASQDISNYLNWYQQKPDGTVKLLIYYSSRLHSGVPSRFSGRGSGTDYSLTISTLEQEDIATYFCQQGKTLPLTFGAGTKLELKR	%	71

% inhibition at 450 nM of antibody reading for 75B9 anti-PCSK9 antibody (IgG2a) (antibody, V domains shown) VH: EVQLQQSGADLVKPGASVKLSCTASGFNIKDTYIHWVKQRPEQGLEWIGRIDPANGHTEYDPKFQGRATLTTDTSSNTAYLQLFSLTSEDSAVYFCARSYYGSIFAYWGQGTLVTVSA VL: QIVLTQSPAIMSASPGEKVTISCSASSSVSYLFWYQQKPGSSPKPWIFRTSYLASGVPARFSGSGSGTSFSLTISSMEAEDAATYYCHQYHTYPPTFGGGTKLEIKR : 100

% inhibition at 450 nM of antibody in this record for 77D10 anti-PCSK9 antibody (IgG2b) (antibody, V domains shown) VH: EVQLQQSGAELVRSGASVKLSCTTSGFNIKDYYIHWVKQRPEQGLEWIGWIDPENGDTEYAPKFQGKATMTADTSSNTAYLQLSSLTSADTAVYYCNAYYRYDDGTWFPYWGQGTLVTVSA VL: DIQLTQSPASLSASVGETVTITCRASGNIHSYLAWYQQKQGKSPQFLVDNAKTLPDGVPSRFSVSGSGTQYSLKINSLQPEDFGTYYCQHFWNTPWTFGGGTKLEIKR : 62

Memo: 11B5 anti-PCSK9 antibody (IgG2a) (antibody, V domains shown) VH: EVQLQQSGAELVKPGASVTLSCTASGFNIKDTYMHWVNQRPEQGLVWIGRIDPANGHTEYDPKFQDKATITTDTSSNTAYLHLSSLTSGDTAVYYCARSYFGSIFAYWGQGTLVTVSA VL: QIVLTQSPAIMSASPGEKVTISCSASSSVSYLYWYQQKPGSSPKPWIFRSSHRASGVPARFSGSGSGTSYSLTISSMEAEDAATYYCHQYQSYPPTFGGGTKLEIKR , reported % inhibition at 450 nM of antibody: 100
